# Tested on: DU-145
# experimentNotes: NCI tumour cell line growth inhibition, 48 h
Calls of active or inactive are those of the source. Cut-off read from the data, not from the text of the source: active = GI50 up to about 1.1 µM and inactive = higher.
Valid outcomes are listed here; reply with one: class 1 (active), class 0 (inactive)

Status in this test for COC(=O)C(F)C(Br)C(=O)OC (configuration not stated) ?
class 0

// param item: `CCON=C1C(C)(C)C(C)(C)C(C)(C)C1(C)C` ; yields the recorded call
class 0

Please share the test call associated with CCCCCCCCC/C=C1\CCC(CN2CCOCC2)C1=O (configuration not stated) .
class 0

Dear all, I need the recorded test outcome for CCCCCCCC(=O)NC(C)(C)C(=O)NCC(=O)NC(CC(C)C)C(=O)NC(C)(C)C(=O)NCC(=O)NCC(=O)NC(CC(C)C)C(=O)NC(C)(C)C(=O)NCC(=O)NC(C(=O)NC(CO)CC(C)C)C(C)CC (configuration not stated) , thank you.
class 0

What did this assay record as the result for `N#Cc1c2ccc([N+](=O)[O-])cc2c(=O)n2c1sc1ccc(C(F)(F)F)cc12` ?
class 0

Returns: the outcome recorded for `CC(C)(C)OC(=O)NCCCC(=O)NC1(c2cc3ccccc3s2)CCCCC1` in this assay.
class 0

Query: recorded result category for `CCOP(=O)(OCC)/C(=C/c1ccccc1)CC(C)=O` in this test
class 0

I'd appreciate the recorded outcome for `CC(C)(C)OC(=O)c1ccc(NCc2cc(O)ccc2O)cc1` from this test.
class 0

Status in this test for `CC(=O)N(C(C)=O)n1c(Cc2ccc(Cl)cc2)nn(C(C)=O)c1=O` ?
class 0

Test call for this molecule, please: `COC(=O)[C@@H](Cc1ccccc1)NNC(=O)OC(C)(C)C`
class 0

Short answer needed: outcome of this test for `CN(c1ccccc1Cl)S(=O)(=O)c1ccccc1` ?
class 0

Write down the call the test reported for this molecule. Item: `CC1=C(O)C(=O)C[C@]2(C)[C@H]3CC=C4[C@@H]5CC(C)(C)CC[C@@H]5C(=O)[C@H](O)[C@@]4(C)[C@]3(C)CC[C@@H]12`
class 0

What outcome does the record of this test show for `c1ccc(C/C(=N\Nc2nc3ccccc3[nH]2)c2ccccn2)cc1` ?
class 1

What outcome does the record of this test show for `CC[N+](C)(CC)CCN1C(=O)c2ccccc2S1(=O)=O` ?
class 0

Hi, do you know how `COc1ccc(SCc2cc(OC)c(OC)c(OC)c2)cc1OC` came out in this test?
class 0

Answer briefly: the call reported for COc1c(OC(C)C)cc2cc(O)c(C(=O)NC3Cc4ccc(c(Cl)n4)O[C@@H]4C=C5C#C/C(=C\C#CC6OC56C4OC4CC(C)(O)C(O)C(C)O4)C(OC4CC(O)C(N(C)C)C(C)O4)COC3=O)cc2c1OC (some centres not stated) in this assay.
class 0

State the result this test recorded for `Cc1cccc(/N=C/C=C(\Cl)c2ccc3ccccc3c2)c1` .
class 0

---

Kindly state GI50 for each of the entries shown.
# Test system: MOLT-4
# experimentNotes: NCI tumour cell line growth inhibition, 48 h
Active and inactive are the calls of the source. Rule as the data show it: active = GI50 up to about 1.1 µM and inactive = higher. Starred links: 1 amine or outer side, 2 acyl side, 3 side chain; linkers in the order of their positions; H or OH if unused. Non-standard residues stand in square brackets, D forms with d. Residues, ends and D or L forms follow the SMILES beside them. X35 = C=CCC(O[*:1])C(=O)[*:2]; NMeV = CN[CH](C(=O)O)C(C)C; NMeA = CN[CH](C)C(=O)O; βAla = NCCC(=O)O

For the compound C=CC[C@@]1(OC(C)=O)C(=O)C(=O)OC1C1COC(C)(C)O1 (stereo partly drawn) , give its measured GI50 value.
14.3 µM (inactive)

Hello, please tell me recorded GI50 for this one: `BrCc1ccc2ccc3ccc(CBr)nc3c2n1`
1.65 µM (inactive)

Provide GI50 value for the following compound: CC[C@@]1(O)C(=O)OCc2c1cc1n(c2=O)Cc2cc3ccccc3nc2-1 [CAMPTOTHECIN]
< 0.01 µM (active)

Answer with reported GI50 of `COc1ccc2c(c1)O[C@@H]1c3ccc(OC)cc3OC[C@H]21`
16.6 µM (inactive)

Supply reported GI50 belonging to this compound: `O=C(O)c1c(Br)c(Br)c(Br)c(Br)c1C1c2ccc(O)cc2Oc2cc(O)ccc21`
3.67 µM (inactive)

Answer with the recorded GI50 of `S=C1CCSc2c(ccc3ccccc23)N1` only.
30 µM (inactive)

Give the value of GI50 reported for the following: `N#C/C(C(=S)Nc1ccccc1)=C(/N)N1CCCC1`
> 100 µM (inactive)

Give the reported value of GI50 for this record: COC(=O)C1C=CCON2CCc3c(n(S(=O)(=O)c4ccccc4)c4ccccc34)C12 (stereo not drawn)
26.9 µM (inactive)

Return the recorded GI50 value; entry: `NC(=O)/N=C1/CCC2C3CCCC2C13`
> 100 µM (inactive)

Answer with reported GI50 of `CN(C(=O)Cc1cc(Cl)c(Cl)cc1NC(=O)CN)[C@H]1CCCC[C@@H]1N1CCCC1`
> 100 µM (inactive)

Give the value of GI50 reported for the following: `O=C1[C@@H]2C3c4ccccc4C([C@@H]2C(=O)N1c1ccccc1)S3(=O)=O`
> 100 µM (inactive)

Give the reported value of GI50 for this record: `O=c1c2cc(Cl)ccc2sc2cccc(Cl)c12`
> 100 µM (inactive)

In one line, give reported GI50 of the entry `COc1ccc(SCc2cc(OC)c(OC)c(OC)c2)cc1OC` .
46.2 µM (inactive)

Consider the compound `CCOC(=O)C(C(=O)OCC)=C1SC(=N\c2ccccc2)/C(=N/c2ccccc2)N1c1ccccc1` and give its recorded GI50.
13.3 µM (inactive)

Output GI50 of `O=C1/C(=C/c2cccc(F)c2)CCCc2ccccc21`
17.7 µM (inactive)

Read off the recorded GI50 for `O=C(/C=C/c1ccc(Cl)c(Cl)c1)c1ccc2ccccc2c1`
48.9 µM (inactive)

Specify measured GI50 for `COc1ccc(O)c(/C=N\Nc2ccccc2)c1` .
1.39 µM (inactive)

Consider the compound `CCOC(=O)C#Cc1ccc(C#CC(=O)OCC)cc1` and give its recorded GI50.
1.02 µM (active)

Report measured GI50; entry is `Cc1cc(=O)c2c([nH]1)NS(=O)(=O)NC2=O`
> 100 µM (inactive)

Return the recorded GI50 value; entry: CC1=NN(c2ccccc2)C(=O)C1/N=N/c1ccc(Br)cc1C (stereo not drawn)
> 100 µM (inactive)

Supply reported GI50 belonging to this compound: c1ccc2c3c([nH]c2c1)C1C2CCCCN2C(c2ccncc2)N1CC3 (stereo not drawn)
43.3 µM (inactive)

# return recorded GI50 for entry `CCCNC(=S)N/C=C1\C(=O)Nc2ccccc2C1=O`
> 100 µM (inactive)

For the compound CCN(CC)CC1CCCCN1CC(=O)N1c2ccccc2NC(=O)c2ccccc21 (stereo not drawn) , give its reported GI50.
> 100 µM (inactive)

Give the reported GI50 for this compound. `CCCC(=O)Oc1ccc(/C=N/NC(N)=S)nc1`
46.8 µM (inactive)

Quick one: give measured GI50 for C=CCC1OC(=O)CCNC(=O)C(C)N(C)C(=O)C(C(C)C)N(C)C(=O)C(C(C)CC)NC(=O)C2CCCN2C1=O (stereo not drawn) (cyclo([X35]PI[NMeV][NMeA][βAla]); configuration not given here)
2.11 µM (inactive)

Identify measured GI50 associated with `Cc1cc(=O)oc2c1cc1ccc3cccc4ccc2c1c34`
> 100 µM (inactive)

Look up and report measured GI50 for this entry: COC1=CC(=O)C2(C=C1OC)OC[C@H]1Oc3c(ccc4c3C=CC(C)(C)O4)C(=O)[C@H]12 (stereo partly drawn)
27.4 µM (inactive)

Note GI50 for the compound shown: `Cc1c(C(=O)O)sc2nc[nH]c(=O)c12`
> 100 µM (inactive)

Output GI50 of `Cc1cccc(/C=N/NC(=S)N2CCCCCC2)n1`
< 0.01 µM (active)

Give reported GI50 value for CC(SC(=S)N1CCOCC1)c1cc2oc(=O)n(C)c2cc1Cl (stereo not drawn)
56.1 µM (inactive)

Write down GI50 measured for item `O=C1CCC2(CCO1)OCCO2`
> 100 µM (inactive)

Give me measured GI50, please, for this compound: CNC(=O)C(C)NC(=O)C(Cc1ccccc1)NC(=O)c1ccccc1 (stereo not drawn)
> 100 µM (inactive)

For the compound `C(CCCCc1nnc(N2CCCCC2)o1)CCCc1nnc(N2CCCCC2)o1` , give its measured GI50 value.
> 100 µM (inactive)

Read off the recorded GI50 for CC(NC(=O)C1(N)CCCC1)C(=O)O (stereo not drawn)
> 100 µM (inactive)

Specify reported GI50 for the compound shown: `O=C(OCCOC(=O)c1ccc2c(c1)C1(SCCS1)c1ccccc1-2)c1ccc2c(c1)C1(SCCS1)c1ccccc1-2`
> 100 µM (inactive)

Return GI50 for the following compound: `O=C(C(=O)n1ncc(Cl)c(Cl)c1=O)n1ncc(Cl)c(Cl)c1=O`
14.8 µM (inactive)

Fill in reported GI50 for this entry: O=C=NCCCCCCN1C(=O)N2C(c3ccccc3)N(CCCCCCN=C=O)C(=O)N2C1c1ccccc1 (stereo not drawn)
62.1 µM (inactive)

Quote GI50 reported for `Cc1c(CCN2CCOCC2)c(N2CCOCC2)n2c(nc3ccccc32)c1C#N` please.
> 10 µM (inactive)

// Input: `Clc1ccc(/C(=C\c2ccccc2)Cn2ccnc2)cc1` . Output its GI50 only.
21.1 µM (inactive)

Specify GI50 for `COc1ccc(/C=C(\C(C)=O)C(=O)Nc2ccccc2)cc1` and stop.
> 100 µM (inactive)

Identify measured GI50 corresponding to `Cc1ccc(-c2sc(-c3ccc(C)cc3)c3c2C2CCC3C2)cc1`
> 50 µM (inactive)

Read the entry `CCOc1ccc(NC(=O)/C(=C/c2ccccc2)C(C)=O)cc1` and write its reported GI50.
3.73 µM (inactive)

# return recorded GI50 for entry `O=[N+]([O-])c1cccc2nc3ccccc3c(NCCCCCNc3c4ccccc4nc4cccc([N+](=O)[O-])c34)c12`
0.0203 µM (active)
